Test system: Neuregulin-1 EGF-like domain
Experiment: binders of neuregulin-1 EGF-like domain, primary screen, biochemical, small-molecule microarray, 635 nm fluorescence (AID 1081);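 also: binding of the protein to compounds printed on small-molecule microarray slides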
Details: small-molecule microarray binding, higher = more signal
Record True whenever composite z-score is at 0.6 or higher; record False when lower.

1. CCOC(=O)[C@H](Cc1ccccc1)NC(=O)CCC1CC(OC(=O)NCCc2ccc(F)cc2)CC2(CCCC(COC(=O)NCCc3ccccc3OC)O2)O1 (some centres not stated) :: True
2. CC(C)CON=C1[C@H]2CCn3c(=O)n(Cc4cc5c(cc4Cl)OCO5)c(=O)n3[C@H]2[C@H](O)[C@@H]2O[C@H]12 :: False
3. COc1cccc([C@H]2Oc3ccc(OC)cc3C(=NOC[C@@H](O)COCc3ccco3)[C@@H]2O)c1 :: False
4. O=c1n(Cc2cc3c(cc2Cl)OCO3)c(=O)n2n1CC[C@@H]1C(=NOC[C@@H](O)COCc3ccco3)[C@H]3O[C@H]3[C@@H](O)[C@@H]12 :: False
5. O=C1C=C[C@@H](O)[C@@H]2[C@@H]3C(=O)N(C[C@@H]4CCCO4)C(=O)[C@@H]3CC[C@@H]12 :: True
6. CCN1C(=O)[C@H]2[C@H]3[C@H](O)[C@H](O)CC(=O)[C@H]3CC[C@H]2C1=O :: True
7. COc1cccc([C@H]2Oc3ccc(OC)cc3C(=NOC(C)CN3CCCCc4nc(C)c(C)cc43)[C@@H]2O)c1 (some centres not stated) :: True

Reference for the values: PubChem BioAssay
